- procedure details: qHTS assay to identify small molecule agonists of the sonic hedgehog signaling (Shh) pathway - cell viability counter screen (AID 1259366); note: nearly all actives have a fitted effect of over 50% in size
- condition notes: NIH/3T3 Gli1-Luc viability, CellTiter-Fluor, 24 h; series mostly up to 92.4 µM
Results filed as inconclusive are left out. Activity calls are given as the source filed them. Calls come from the whole dose curve; as a rule, active = well fitted cell-killing curve with a large enough effect in the repeat runs; inconclusive = weak or mixed curves, or effect the other way; inactive = flat fitted curve, though single readings scatter.
Thanks in advance; please answer with one of these: 1.0 (active), 0.0 (inactive)

Before answering, review these 3 worked examples.
compound | discrete label
CC1=CC(=O)/C(=C(/C)O)C(=O)O1 | 0.0
Cc1cccc(OCCOc2cccc(C)c2)c1 | 0.0
CN1CCN(C2=Nc3cc(Cl)ccc3Nc3ccccc32)CC1 | 1.0

(Q) Any idea what this test logged for NCc1ccccc1 ?
(A) 0.0

(Q) Any idea what this test logged for CNS(=O)(=O)Cc1ccc2[nH]cc(CCN(C)C)c2c1 ?
(A) 0.0

(Q) Any idea what this test logged for CCCCCOC(=O)COc1cc(N2C(=O)C3=C(CCCC3)C2=O)c(F)cc1Cl ?
(A) 0.0

(Q) Any idea what this test logged for Cc1cc(CC(=O)O)c(C)n1-c1ccc(Cl)cc1 ?
(A) 0.0

(Q) Any idea what this test logged for CN(C(=O)CCCOc1ccc2[nH]c(=O)ccc2c1)C1CCCCC1 ?
(A) 0.0

(Q) Any idea what this test logged for Cc1cc(C)c(S(=O)(=O)O)cc1N=Nc1cc(S(=O)(=O)O)c2ccccc2c1O ?
(A) 1.0

(Q) Any idea what this test logged for CC(=O)OC/C=C/c1ccccc1 ?
(A) 0.0

(Q) Any idea what this test logged for Cc1c(Cn2ccnc2)c2ccccc2n1CCC(=O)O ?
(A) 0.0

(Q) Any idea what this test logged for CC(=O)CC(=O)c1ccccc1 ?
(A) 0.0

(Q) Any idea what this test logged for COC(=O)CSc1cc(N=c2sc(=O)n3n2CCCC3)c(F)cc1Cl ?
(A) 0.0

(Q) Any idea what this test logged for CN1CCC(=C2c3ccccc3C=Cc3ccccc32)CC1 ?
(A) 0.0

(Q) Any idea what this test logged for CC(=O)O[C@H]1C[C@@H]2CC[C@@H]3[C@H](CC[C@@]4(C)[C@H]3C[C@H]([N+]3(C)CCCCC3)[C@@H]4OC(C)=O)[C@@]2(C)C[C@@H]1N1CCCCC1 ?
(A) 0.0

(Q) Any idea what this test logged for CC(C(=O)O)c1ccc(-c2ccccc2)c(F)c1 (centres undefined) ?
(A) 0.0

(Q) Any idea what this test logged for CN1CCC(OC(c2ccccc2)c2ccccc2)CC1 ?
(A) 0.0

(Q) Any idea what this test logged for Nc1cnn([C@@H]2O[C@H](CO)[C@@H](O)[C@H]2O)c(=O)n1 ?
(A) 0.0

(Q) Any idea what this test logged for O=C1[C@H](CC[C@H](O)c2ccc(F)cc2)[C@@H](c2ccc(O)cc2)N1c1ccc(F)cc1 ?
(A) 0.0

(Q) Any idea what this test logged for COc1ccc([C@@H]2Sc3ccccc3N(CCN(C)C)C(=O)[C@@H]2OC(C)=O)cc1 ?
(A) 0.0

(Q) Any idea what this test logged for CCCCCC/C=C/C=O ?
(A) 0.0

(Q) Any idea what this test logged for C=CC(=O)OCCOC(=O)CCC(=O)O ?
(A) 0.0

(Q) Any idea what this test logged for O=C(O)Cc1cc(I)c(Oc2ccc(O)c(I)c2)c(I)c1 ?
(A) 0.0

(Q) Any idea what this test logged for S=C(S)NCCNC(=S)S ?
(A) 0.0
